Target: T1, ProQ (minimal ProQ, FinO domain with short N- and C-terminal extensions) (Neisseria meningitidis, UniProt Q9JY98 1-141)
T1 sequence: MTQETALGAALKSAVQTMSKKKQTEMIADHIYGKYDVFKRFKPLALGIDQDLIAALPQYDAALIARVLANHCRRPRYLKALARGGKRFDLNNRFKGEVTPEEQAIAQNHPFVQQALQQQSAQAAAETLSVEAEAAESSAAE
Assay: EMSA; max bound 66%; estimated, not accurately fit; 25 mM Tris pH 7.5, 150 mM NaCl, 5% glycerol, 1 mM MgCl2, 1 nM 32P-RNA, ProQ up to 50 nM, 30 min at room temperature; 6% native gel at 4 C
Conditions: protein: recombinant; tags: N-terminal His6-TEV, cleaved; one extra N-terminal Ser remains; label: 5'-32P; terminator hairpin, 7 nt 3' tail
Parameter measured: Kd

In: Please give measured Kd of the following entry: GGGAUUUCAGUUUGAAAGCAAAGCCUCCGACUGUUCGGAGGCUUUUUUA (structured_RNA) [rpmG-U6A]
Out: < 0.5 nM
